From: patent US20070149763A1

Target: BACE (recombinant human BACE catalytic domain, expressed in CHO cells as BACE-T-IgG, IgG1 removed with thrombin) (human) (UniProt P56817)
Sequence (P56817 43-460 limits assumed, form in doubt): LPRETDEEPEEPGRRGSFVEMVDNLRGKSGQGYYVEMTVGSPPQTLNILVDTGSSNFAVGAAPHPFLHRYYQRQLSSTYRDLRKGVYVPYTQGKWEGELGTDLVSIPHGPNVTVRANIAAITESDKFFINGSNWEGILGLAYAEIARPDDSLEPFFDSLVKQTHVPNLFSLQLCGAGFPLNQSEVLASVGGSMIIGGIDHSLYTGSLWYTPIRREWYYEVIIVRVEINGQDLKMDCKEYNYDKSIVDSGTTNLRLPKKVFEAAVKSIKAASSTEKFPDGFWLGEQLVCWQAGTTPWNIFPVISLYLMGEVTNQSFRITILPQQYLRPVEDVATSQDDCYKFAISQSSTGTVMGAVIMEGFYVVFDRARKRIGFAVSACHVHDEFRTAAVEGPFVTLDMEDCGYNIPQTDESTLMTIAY
Assay: fluorescence anisotropy binding assay, pH 4.5
Where no end group is shown, it is not given here.
Measured Quantity: pKd
Hey, just a heads up that pKd is the negative log base 10 of the concentration in molar.

Data request: Please report the recorded pKd for NLTTYPYFIPLP (also: Alexa488 label, position shown only) [Molecule X (… labeled with Alexa488)] .
Data returned: 6.04
